- experimental-system: Cyclin-dependent kinase 5/CDK5 activator 1 (Homo sapiens, UniProt Q00535)
- Sequence (Q00535 whole entry): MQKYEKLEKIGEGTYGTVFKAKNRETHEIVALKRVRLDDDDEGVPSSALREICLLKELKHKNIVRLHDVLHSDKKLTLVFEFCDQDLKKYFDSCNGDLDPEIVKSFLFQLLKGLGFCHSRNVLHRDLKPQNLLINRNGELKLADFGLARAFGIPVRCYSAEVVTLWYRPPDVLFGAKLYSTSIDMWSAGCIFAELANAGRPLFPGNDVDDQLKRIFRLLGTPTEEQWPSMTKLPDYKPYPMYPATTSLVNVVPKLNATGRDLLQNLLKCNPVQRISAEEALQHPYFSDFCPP
- Sequence (Q15078 whole entry, further chain): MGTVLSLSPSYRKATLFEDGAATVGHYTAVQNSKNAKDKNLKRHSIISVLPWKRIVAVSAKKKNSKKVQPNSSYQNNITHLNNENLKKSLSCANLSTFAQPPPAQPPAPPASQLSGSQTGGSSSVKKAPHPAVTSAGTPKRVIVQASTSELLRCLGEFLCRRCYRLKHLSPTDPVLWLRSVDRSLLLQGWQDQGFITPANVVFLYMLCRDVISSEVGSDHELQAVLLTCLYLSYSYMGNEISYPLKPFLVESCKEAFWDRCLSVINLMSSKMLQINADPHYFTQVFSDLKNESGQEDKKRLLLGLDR
- test-details: Inhibition of Cyclin-dependent kinase 5-p35nck5a
pIC50: −log10 of the molar value.
readout: pIC50

// worked examples, pIC50 included
>>> reported_value("COc1ccc2c(c1)C(=O)C(c1c(O)[nH]c3ccccc13)=N2")
5.92
>>> reported_value("COc1ccc2c(c1)C(=O)C(c1c(O)[nH]c3ccc(OC)cc13)=N2")
6.10

I: Cc1ccc2[nH]c(O)c(C3=Nc4ccccc4C3=O)c2c1
II: COc1ccc2[nH]c(O)c(C3=Nc4ccccc4C3=O)c2c1
III: COc1ccc2c(c1)C(=O)C(c1[nH]c3ccc(OC)cc3c1O)=N2
IV: Cc1ccc2c(c1)C(=O)C(c1c(O)[nH]c3ccccc13)=N2
Q: Reorder the items by pIC50, least to greatest. Response field: labels, in requested order.
Ans: III, I, IV, II
(III: 4.59, I: 5.30, IV: 5.72, II: 5.92)

---

- experimental-system: Cyclin-dependent kinase 5/CDK5 activator 1 (Homo sapiens) (UniProt Q00535+Q15078)
- Sequence (Q00535 whole entry): as the sequence (Q00535 whole entry) above
- Sequence (Q15078 99-307 partner limits assumed): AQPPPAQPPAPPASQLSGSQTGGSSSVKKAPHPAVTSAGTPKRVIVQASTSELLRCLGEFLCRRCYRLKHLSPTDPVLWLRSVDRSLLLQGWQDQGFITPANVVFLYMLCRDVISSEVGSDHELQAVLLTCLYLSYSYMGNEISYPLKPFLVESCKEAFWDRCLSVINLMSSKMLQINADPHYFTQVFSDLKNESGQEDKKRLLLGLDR
- test-details: Residual Cyclin-dependent kinase 5-p35nck5a activity with L240C/N297Q mutant cytochrome P450 2A6 extract
- Format: protein-complex assay
readout: residual activity (%)

>>> reported_value("COc1cc2cc[nH]c2cc1OC")
80
>>> reported_value("Clc1cccc2cc[nH]c12")
82
>>> reported_value("Cc1cccc2cc[nH]c12")
90
>>> reported_value("Nc1ccc2[nH]ccc2c1")
73
>>> reported_value("O=[N+]([O-])c1ccc2cc[nH]c2c1")
107
>>> reported_value("COc1ccc2[nH]ccc2c1")
3
>>> reported_value("COC(=O)c1ccc2[nH]ccc2c1")
99
>>> reported_value("Fc1ccc2cc[nH]c2c1")
97
>>> reported_value("Brc1ccc2[nH]ccc2c1")
56
>>> reported_value("c1cnc2[nH]ccc2c1")
103

1: Cc1ccc2[nH]ccc2c1
2: c1ccc2[nH]ccc2c1
Q: I'm curious, which of these has a smaller residual activity number: 1 or 2 ? // output: label of the selected item
Ans: 1
(1: 19%, 2: 81%)

---

- experimental-system: Glycogen synthase kinase-3 (Homo sapiens, UniProt P49840+P49841)
- Sequence (P49840 whole entry, looked up): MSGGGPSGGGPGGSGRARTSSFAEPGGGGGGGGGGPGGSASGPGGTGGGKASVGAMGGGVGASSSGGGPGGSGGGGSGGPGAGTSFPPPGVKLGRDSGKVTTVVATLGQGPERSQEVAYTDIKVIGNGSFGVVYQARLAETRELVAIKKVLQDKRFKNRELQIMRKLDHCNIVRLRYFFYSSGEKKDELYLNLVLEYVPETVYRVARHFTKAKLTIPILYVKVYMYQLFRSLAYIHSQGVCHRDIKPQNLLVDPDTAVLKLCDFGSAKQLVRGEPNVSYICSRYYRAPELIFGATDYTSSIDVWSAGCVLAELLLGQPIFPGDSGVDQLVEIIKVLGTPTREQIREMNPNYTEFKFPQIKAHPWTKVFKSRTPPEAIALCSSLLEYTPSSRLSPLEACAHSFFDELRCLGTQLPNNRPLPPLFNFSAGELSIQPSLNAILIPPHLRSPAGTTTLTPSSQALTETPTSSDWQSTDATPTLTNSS
- Sequence (P49841 whole entry, looked up): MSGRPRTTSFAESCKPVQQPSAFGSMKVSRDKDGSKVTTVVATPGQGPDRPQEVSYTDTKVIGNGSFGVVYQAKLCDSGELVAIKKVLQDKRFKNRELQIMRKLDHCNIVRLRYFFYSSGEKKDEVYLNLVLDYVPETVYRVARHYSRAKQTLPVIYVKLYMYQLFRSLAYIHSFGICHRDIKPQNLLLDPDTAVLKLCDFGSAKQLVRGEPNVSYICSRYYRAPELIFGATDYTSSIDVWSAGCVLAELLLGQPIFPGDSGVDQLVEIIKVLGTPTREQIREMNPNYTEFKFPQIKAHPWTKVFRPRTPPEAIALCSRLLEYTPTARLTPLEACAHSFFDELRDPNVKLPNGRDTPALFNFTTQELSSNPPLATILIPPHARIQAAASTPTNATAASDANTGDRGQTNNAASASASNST
- test-details: Residual porcine GSK-3-alpha/beta kinase activity with L240C/N297Q mutant cytochrome P450 2A6 extract
- Format: protein assay
- Set-up: concentration or dose not given beside the values
- assay-setup: Sus scrofa; target entry is the homologue from another species
readout: residual activity (%)

>>> reported_value("COc1cc2cc[nH]c2cc1OC")
62
>>> reported_value("COc1ccc2[nH]ccc2c1")
3
>>> reported_value("c1cnc2[nH]ccc2c1")
89
>>> reported_value("Nc1ccc2[nH]ccc2c1")
42
>>> reported_value("Cc1cccc2cc[nH]c12")
59

1: Cc1ccc2[nH]ccc2c1
2: c1ccc2[nH]ccc2c1
Q: 1 or 2 : whose residual activity is greater? Selection: enter the item's label.
Ans: 2
(2: 76%, 1: 15%)

---

- experimental-system: Cyclin-dependent kinase 1/cyclin B (Marthasterias glacialis)
- test-details: Inhibition of Cyclin-dependent kinase 1-cyclin B of M-phase Marthasterias glacialis oocytes
pIC50: −log10 of the molar value.
readout: pIC50

Reference set (2 entries):
>>> reported_value("COc1ccc2[nH]c(O)c(C3=Nc4ccccc4C3=O)c2c1")
5.82
>>> reported_value("COc1ccc2c(c1)C(=O)C(c1c(O)[nH]c3ccc(OC)cc13)=N2")
6.40

A: COc1ccc2c(c1)C(=O)C(c1c(O)[nH]c3ccccc13)=N2
B: COc1ccc2c(c1)C(=O)C(c1[nH]c3ccc(OC)cc3c1O)=N2
Q: Please choose the item with the lower pIC50 value from this pair: A and B Please indicate the selected item by its label.
Ans: A

---

- experimental-system: Glycogen synthase kinase-3 (Homo sapiens, UniProt P49840+P49841)
- test-details: Inhibition of porcine GSK-3-alpha/beta kinase
- Type: protein assay, Sus scrofa
- assay-setup: target entry is the homologue from another species
readout: IC50 (nM)

>>> reported_value("COc1ccc2c(c1)C(=O)C(c1c(O)[nH]c3ccccc13)=N2")
600

A: Cc1ccc2c(c1)C(=O)C(c1c(O)[nH]c3ccccc13)=N2
B: Cc1ccc2[nH]c(O)c(C3=Nc4ccccc4C3=O)c2c1
Q: Of A and B , which shows the smaller IC50 value? Refer to your chosen entry by its label in the reply.
Ans: A
(A: 550 nM, B: 800 nM)

---

- experimental-system: Glycogen synthase kinase-3 (Homo sapiens, UniProt P49840+P49841)
- test-details: Inhibition of porcine GSK-3-alpha/beta kinase
- Type: protein assay, Sus scrofa
- assay-setup: target entry is the homologue from another species
readout: IC50 (µM)

1: COc1ccc2c(c1)C(=O)C(c1[nH]c3ccc(OC)cc3c1O)=N2
2: COc1ccc2[nH]c(O)c(C3=Nc4ccccc4C3=O)c2c1
3: O=C1Nc2ccccc2/C1=C1/Nc2ccccc2C1=O
Q: Rank the items above by IC50, largest value first. Answer with the labels in sequence, matching the requested order.
Ans: 1, 3, 2

---

# Lookup of reported IC50 keyed by entry
- experimental-system: Glycogen synthase kinase-3 (Homo sapiens, UniProt P49840+P49841)
- test-details: Inhibition of porcine GSK-3-alpha/beta kinase
- Format: protein assay, Sus scrofa
- assay-setup: target entry is the homologue from another species

Q: Query (molecule): COc1ccc2c(c1)C(=O)C(c1c(O)[nH]c3ccc(OC)cc13)=N2 ; field requested: IC50
Ans: 0.2 µM

Q: # lookup: IC50 of O=C1/C(=C2\Nc3ccccc3C2=O)Nc2ccccc21 [INDIGO]
Ans: > 100 µM

Q: Fill in: IC50 of COc1ccc2c(c1)C(=O)C(c1[nH]c3ccccc3c1O)=N2 is ___
Ans: > 100 µM
